Measured values drawn from patent US20220235032A1 for this set.

System: U937 cells
Test: Inhibitory activity against programmed necroptosis of U937 cells induced by TNF-α and Q-VD-Oph (CellTiter-Glo)
Assay type: cell-based
Conditions: human TNF-α + Q-VD-Oph induced necroptosis, 48 h, Celltiter-Glo survival rate
READOUT: log10 of IC50 (log10 of the value in nM)

N#Cc1ccnc(N2C[C@H]3C[C@@H](C(=O)N4N=CC[C@@H]4c4cc(F)cc(F)c4)C[C@H]3C2)n1 (single isomer, unassigned) [Compound Z-32-4] | 1.79
NC(=O)c1cc(N2CCC(C(=O)N3N=CCC3c3cc(F)ccc3F)C3(CC3)C2)ncn1 (racemic) [Compound Z-53-2] | 2.52
CNC(=O)c1cc(N2CCC(C(=O)N3N=CCC3c3cc(F)cc(F)c3)CC23CC3)ncn1 (centres unmarked) [Compound Z-70-a] | 1.32
N#Cc1cc(N2CCC(C(=O)N3CCC(c4cc(F)cc(F)c4)=N3)C3(CC3)C2)ncn1 (racemic) [Compound Z-25] | 0.60
Cc1nnc(N2CCC(C(=O)N3N=CCC3c3cc(F)cc(F)c3)C3(CC3)C2)o1 (centres unmarked) [Compound Z-63-a] | 1.51
Cc1nnc(N2CCC(C(=O)N3N=CCC3c3cncc(F)c3)C3(CC3)C2)o1 (centres unmarked) [Compound Z-68] | 2.56
Cc1nnc(N2CCC(C(=O)N3N=CCC3c3cc(F)cc(F)c3)C3(CC3)C2)o1 (centres unmarked) [Compound Z-61] | 1.72
NC(=O)c1cc(N2CCC(C(=O)N3N=CCC3c3cc(F)cc(F)c3)CC23CC3)ncn1 (centres unmarked) [Compound Z-66] | 1.30
NC(=O)c1cc(N2CCC(C(=O)N3N=CCC3c3cc(F)cc(F)c3)CC23CC3)ncn1 (centres unmarked) [Compound Z-64-1] | 0.78
NC(=O)c1cc(N2CCC(C(=O)N3N=CCC3c3cc(F)ccc3F)C3(CC3)C2)ncn1 (racemic) [Compound Z-53-1] | 1.41
Cc1nnc(N2CCC(C(=O)N3N=CCC3c3cc(F)cc(F)c3)C3(CC3)C2)o1 (centres unmarked) [Compound Z-63-2] | 1.32

----------
The entries below are paired with their reported pIC50.
Molecular target: UniProt:Q13546
Sequence (Q13546 whole entry): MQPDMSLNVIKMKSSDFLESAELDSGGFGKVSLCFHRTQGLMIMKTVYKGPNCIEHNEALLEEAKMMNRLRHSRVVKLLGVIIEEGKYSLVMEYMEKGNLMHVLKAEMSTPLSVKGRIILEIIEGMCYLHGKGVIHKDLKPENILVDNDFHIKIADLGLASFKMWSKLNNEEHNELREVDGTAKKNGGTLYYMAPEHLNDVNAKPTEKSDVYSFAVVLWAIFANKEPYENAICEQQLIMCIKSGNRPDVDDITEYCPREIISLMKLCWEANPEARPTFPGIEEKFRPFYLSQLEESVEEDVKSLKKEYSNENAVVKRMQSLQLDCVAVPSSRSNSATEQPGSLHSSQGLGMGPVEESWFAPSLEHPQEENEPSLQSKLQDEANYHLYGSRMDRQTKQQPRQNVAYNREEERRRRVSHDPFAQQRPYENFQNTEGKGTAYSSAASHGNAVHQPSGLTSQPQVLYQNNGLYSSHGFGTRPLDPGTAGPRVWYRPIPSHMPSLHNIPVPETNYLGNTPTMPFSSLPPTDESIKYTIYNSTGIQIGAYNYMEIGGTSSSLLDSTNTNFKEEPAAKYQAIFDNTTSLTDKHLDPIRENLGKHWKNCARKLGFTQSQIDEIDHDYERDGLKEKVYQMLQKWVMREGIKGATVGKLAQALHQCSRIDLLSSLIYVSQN
pIC50: −log10 of the molar value.
READOUT: pIC50

COc1nccc(N2CC3CC(C(=O)N4N=CCC4c4ccccc4)CC3C2)n1 (stereo not shown) [Compound Z-13] | 7.20
COc1cc(N2CC3CC(C(=O)N4N=CCC4c4ccccc4)CC3C2)ncn1 (stereo not shown) [Compound Z-12] | 6.91
N#Cc1cc(N2CCC(C(=O)N3N=CCC3c3cc(F)cc(F)c3)C3(CC3)C2)ncn1 (single isomer, unassigned) [Compound Z-25-2] | 7.38
N#Cc1cc(N2CC3CC(C(=O)N4N=CCC4c4cc(F)cc(F)c4)CC3C2)ncn1 (stereo not shown) [Compound Z-11] | 7.05

----------
Test system: U937 cells
Assay: Inhibitory activity against programmed necroptosis of U937 cells induced by TNF-α and Q-VD-Oph (CellTiter-Glo)
Type: cell-based
Details: human TNF-α + Q-VD-Oph induced necroptosis, 48 h, Celltiter-Glo survival rate
pIC50: −log10 of the molar value.
READOUT: pIC50

N#Cc1cc(N2CCC(C(=O)N3N=CCC3c3cncc(F)c3)C3(CC3)C2)ncn1 (racemic) [Compound Z-48-1] | 7.52
N#Cc1cc(N2C[C@H]3C[C@H](C(=O)N4N=CC[C@@H]4c4cc(F)cc(F)c4)C[C@H]3C2)ncn1 (single isomer, unassigned) [Compound Z-38-2] | 7.57
N#Cc1cc(N2CCC(C(=O)N3CCC(c4cc(F)cc(F)c4)=N3)C3(CC3)C2)ncn1 (racemic) [Compound Z-26] | 6.61
N#Cc1cc(N2CCC(C(=O)N3N=CCC3c3cc(F)ccc3F)C3(CC3)C2)ncn1 (racemic) [Compound Z-52-2] | 7.39
N#Cc1cc(N2CC3CCC(C2)C3C(=O)N2N=CCC2c2ccccc2)ncn1 (single isomer, unassigned) [Compound Z-3] | 6.49
Nc1nc(N2C[C@H]3C[C@@H](C(=O)N4N=CC[C@@H]4c4cc(F)cc(F)c4)C[C@H]3C2)ncc1F (single isomer, unassigned) [Compound Z-23-4] | 7.39
N#Cc1cc(N2CCC(C(=O)N3N=CCC3c3cncc(F)c3)C3(CC3)C2)ncn1 (racemic) [Compound Z-48-2] | 6.44
N#Cc1cc(N2C[C@H]3C[C@@H](C(=O)N4N=CC[C@@H]4c4cc(F)cc(F)c4)C[C@H]3C2)ncn1 (single isomer, unassigned) [Compound Z-38-4] | 7.09
N#Cc1cc(N2CC3CCC(C2)C3C(=O)N2N=CCC2c2ccccc2)ncn1 (single isomer, unassigned) [Compound Z-2] | 6.81
N#Cc1cc(N2CCC(C(=O)N3N=CCC3c3cc(F)ccc3F)C3(CC3)C2)ncn1 (racemic) [Compound Z-52-1] | 8.40
COc1nccc(N2C[C@H]3C[C@H](C(=O)N4N=CC[C@@H]4c4ccccc4)C[C@H]3C2)n1 (single isomer, unassigned) [Compound Z-37-2] | 7.66
NC(=O)c1ccnc(N2C[C@@H]3CC(C(=O)N4N=CC[C@@H]4c4cc(F)cc(F)c4)C[C@H]3C2)n1 (single isomer, unassigned) [Compound Z-18-4] | 7.21
Nc1nc(N2C[C@H]3C[C@@H](C(=O)N4N=CC[C@@H]4c4ccccc4)C[C@H]3C2)ncc1F (single isomer, unassigned) [Compound Z-39-4] | 7.06
